- System: MAO P3
- PROTOCOL NOTES: Substrate specificity (Vmax, Km) of purified MAO P3, GC-MS
- Assay type: biochemical, Pseudogymnoascus sp. P3
- CONDITION CONTEXT: purified MAO P3 1 U/mL, 0.1 M potassium phosphate buffer pH 7.2, 30 °C
Record true whenever Vmax is at 0.2 mM/h or higher; record false when lower.

CCC(C)N (centres unmarked) [Substrate 1, sec-butylamine] : false
CC1(C)C2CNCC21 (centres unmarked) [Substrate 9, 6,6-dimethyl-3-azabicyclo[3.1.0]hexane] : true
C1CCCNCC1 [Substrate 6, hexamethyleneimine] : true
C1CCNC1 [Substrate 3, pyrrolidine] : false
NC1CCCC1 [Substrate 2, cyclopentylamine] : true

Is Vmax for C1CC2CNCC2C1 (centres unmarked) [Substrate 10, 3-azabicyclo[3.3.0]octane] at or above 0.2 mM/h?
true

Is it the case that c1ccc2c(c1)CCN2 [Substrate 12, indoline] has Vmax reaching or exceeding 0.2 mM/h?
false

API: above_or_equal(metric=Vmax, cutoff=0.2 mM/h) for item CC(N)c1ccccc1 (stereo not drawn) [Substrate 5, α-methylbenzylamine]
true

* * *

- EXPERIMENTAL SYSTEM: MAO P3
- PROTOCOL NOTES: Inhibition analysis of MAO P3 by clorgyline, colorimetric guaiacol/peroxidase assay
- CONDITION CONTEXT: preincubated 30 min at 30 °C; substrate 6,6-dimethyl-3-azabicyclohexane
EXPERIMENTAL READOUT: pIC50
pIC50 field: float, defined as -log10 of concentration (mol/L).

Consider C#CCN(C)CCCOc1ccc(Cl)cc1Cl . Its measured pIC50 is 7.74

Data provenance is paper PMC8538783.
